# tested on: Cellular tumor antigen p53 (Homo sapiens)
# experiment notes: TOX21_p53_BLA_p2_ratio: Tox21 HCT-116 p53 Agonism Beta-lactamase Assay, Ratio, Phase 2 (AID 2283592)
Records with an inconclusive call do not appear. Activity calls are given as the source filed them. Rule for the calls: active = hit-call score of the fitted dose curve at least 0.9, where 1 is the maximum; inconclusive = response in the unintended direction; inactive = score below 0.9.
Outcomes: YES = active, NO = inactive

* O=c1cc(-c2ccccc2)oc2ccc3ccccc3c12 | NO
* CC(C)(C)C1CCCCC1O (centres undefined) | NO
* CC(=O)CC(C)C | NO
* O=C(O)c1cccc(C(=O)O)n1 | NO
* NCc1cccc(CN)c1 | NO
* O=C(O)C(=O)O | NO
* C=CC(C)(CCC=C(C)C)OC(C)=O (centres undefined) | NO
* Cc1ccc(C(=O)c2ccccc2)cc1 | NO
* CCCCCCCCCCCCCC[n+]1ccccc1 | YES

Values from PubChem BioAssay (EPA / NIEHS)
